# maps each entry to its growth
Test system: OVCAR-5 ovarian
assay remarks: NCI-60 one-dose screen, 48 h (100 = growth as untreated, 0 = no growth, -100 = all killed)
assay setup: 10 µM
The panel holds about 83,000 compounds, 20% with a hit somewhere; the sample as a whole holds those more often.
parameter: growth (%)

INSERT INTO measurements (compound, result_value) VALUES
  ('CCCOCC(O)CNCCN (stereo not drawn)', 100),
  ('CC1(C)CC(=O)c2c(nc3ccc(Cl)cc3c2-c2ccccc2)C1', 89.9),
  ('NC1CCC(Nc2nc(NCc3cc(Cl)ccc3O)c3ncn(C4CCCC4)c3n2)CC1 (stereo not drawn)', 17.3),
  ('FC(F)(F)c1ccc(-c2cnc(Cl)nc2NC2CCCCCC2)cc1', 28.7),
  ('Cc1ccc2oc(=O)cc(/C(=C3/C=CC=N3)c3ccc[nH]3)c2c1', 21.1),
  ('N/C(=N\O)c1cn(C2OC(CO)C(O)C2O)c2ncnc(N)c12 (stereo not drawn)', 24.3),
  ('CS(=O)(=O)Nc1ccc(Nc2c3ccccc3nc3cc(Cl)ccc23)cc1', 63.1),
  ('O=C(O)CCCCSCCCCC(=O)O', 122),
  ('COc1cc(-c2nc3cc(Cl)c(Cl)cc3[nH]2)ccc1OCC(=O)NN', 98.1),
  ('O=C(NCCCl)c1cc(Cl)cc(Cl)c1', 107),
  ('CCOc1nc(-c2ccccc2)cc2c(O)c(C(=O)NCCCO)[nH]c(=O)c12', 92.4),
  ('COc1cc(OC)cc(-c2n/c(=C\c3c(O)[nH]c4ccc(OC)cc34)cc3c2=Nc2ccccc2-3)c1', 122),
  ('COc1ccccc1S(=O)(=O)Nc1ccc2c(c1)CN(C)C(=O)N2', 74.5),
  ('COc1cc(-c2cc(/C=C/C(C)=O)[nH]n2)cc(OC)c1OC', 94.5),
  ('CCN1CCN(c2ccc(Nc3ncnc4c3nnn4CCc3cc(OC)cc(OC)c3)cc2)CC1', 86.7),
  ('CCOC(=O)c1sc(NC(=O)c2cc(OC)c(OC)c(OC)c2)nc1C', 108),
  ('CCCCOCCOCCOCc1cc2c(cc1Br)OCO2', 95.5),
  ('COc1ccc(-c2cc(/C=C3\C(=O)Nc4cc(Cl)ccc43)[nH]n2)cc1OC', 95.7),
  ('O=S(=O)(NC1c2ccccc2Oc2ccccc21)c1ccccc1', 101),
  ('CC(=O)OC1Oc2ccccc2-c2oc(=O)c(-c3cc(=O)oc4cc(O)ccc34)cc21 (stereo not drawn)', 75.8),
  ('O=NN(CCCl)C(=O)NCc1ccc(-c2ccc(CNC(=O)N(CCCl)N=O)cc2)cc1', 115),
  ('Cc1ccc(C(=O)O)c(N)c1C', 106),
  ('CCC(O)c1ccc(Br)cc1NC(=O)c1cccc(Cl)c1 (stereo not drawn)', 50.4);

====

# maps each entry to its growth
Tested on: OVCAR-8 ovarian
assay remarks: NCI-60 one-dose screen, 48 h (100 = growth as untreated, 0 = no growth, -100 = all killed)
assay setup: 10 µM
The panel holds about 83,000 compounds, 20% with a hit somewhere; the sample as a whole holds those more often.
parameter: growth (%)

INSERT INTO assay_data (compound, unit_abbrev, result_value) VALUES
  ('COCCOC(=O)NC(=O)Nc1ccc(C(=O)c2ccc(Cl)cc2)cc1', '%', 40.4),
  ('COc1ccc(-c2cn[nH]c2-c2cc(OC)c(OC)c(OC)c2)cc1', '%', 22.5),
  ('COc1cc(-c2nc(-c3nnc(-c4cccnc4)o3)c3ccccn23)cc(OC)c1OC', '%', 73.8),
  ('COc1ccc(-c2cc(/C=C3\C(=O)Nc4cc(Cl)ccc43)[nH]n2)cc1OC', '%', 104),
  ('O=C(CSc1nnc(-c2ccc(Cl)cc2)o1)c1ccccc1', '%', 96.2),
  ('CC(Oc1ccc(Cl)cc1)c1ccccc1 (stereo unspecified)', '%', 110);

====

System: OVCAR-3 ovarian
assay remarks: NCI-60 one-dose screen, 48 h (100 = growth as untreated, 0 = no growth, -100 = all killed)
assay setup: 10 µM
This is part of a sample that, as a whole, favours compounds with a hit. Of some 83,000 tested, about 20% had one in any assay.
# label = true if growth >= 20% else false

INSERT INTO assay_data (molecule, test_system, assigned_label) VALUES
  ('CC(C)/C(=N/O)c1ccccc1', 'OVCAR-3 ovarian', 'true'),
  ('C/C(=N\NC(=S)N1CCCC1)c1ccccn1', 'OVCAR-3 ovarian', 'true'),
  ('Clc1ccc(-c2nc(-c3cccs3)cn3ccnc23)cc1', 'OVCAR-3 ovarian', 'true'),
  ('N#CC1C=Cc2c(ccc3ccccc23)N1C(=O)c1ccccc1 (stereo not drawn)', 'OVCAR-3 ovarian', 'false'),
  ('CS(=O)(=O)Nc1ccc(OCc2nnc(-c3ccc(Cl)cc3)o2)c(F)c1', 'OVCAR-3 ovarian', 'true'),
  ('COc1cc(-c2cc(-c3ccc(C)cc3)nc3nc(N)[nH]c(=O)c23)ccc1Oc1ccnc2cc(Cl)ccc12', 'OVCAR-3 ovarian', 'true'),
  ('Cc1ccc(C2C=C(c3ccc(Cl)cc3)N=C3SC=CN32)c(Br)c1 (stereo not drawn)', 'OVCAR-3 ovarian', 'true'),
  ('FC(F)(F)c1ccc(-c2cnc(Br)nc2NC2CCCCCC2)cc1', 'OVCAR-3 ovarian', 'false'),
  ('COc1cc(OC)cc(N2CCN(C(=O)Nc3nc4cc(F)ccc4nc3OC)CC2)c1', 'OVCAR-3 ovarian', 'false'),
  ('O=C(OCc1ncc(-c2ccc(C(F)(F)F)cc2)c(NC2CCCCCC2)n1)c1c(F)c(F)c(F)c(F)c1F', 'OVCAR-3 ovarian', 'true'),
  ('CC1(C)CNC(=O)N1', 'OVCAR-3 ovarian', 'true'),
  ('Cc1cc(Nc2cccc(F)c2)nc(NCc2ccccc2)n1', 'OVCAR-3 ovarian', 'false'),
  ('CCCc1c(C)nc2scc(-c3ccc(Cl)cc3)n2c1=O', 'OVCAR-3 ovarian', 'true'),
  ('N#CN1CC[C@H](C(=O)Nc2ncc(-c3ccccc3)s2)C1', 'OVCAR-3 ovarian', 'false'),
  ('CCOC(=O)C1=C(Nc2ccc(OC)cc2)C(N)=NC1=N', 'OVCAR-3 ovarian', 'false'),
  ('Cc1cnc(C=O)c2cccc([N+](=O)[O-])c12', 'OVCAR-3 ovarian', 'true'),
  ('CCOc1nc(-c2ccccc2)cc2c(O)c(C(=O)N/N=C/c3ccc(OC)cc3)[nH]c(=O)c12', 'OVCAR-3 ovarian', 'true'),
  ('Clc1cc(Cl)c(OCCCCCCN2CCNCC2)c(Cl)c1', 'OVCAR-3 ovarian', 'true'),
  ('CC(C)C(C)C(N)C(=O)O (stereo not drawn)', 'OVCAR-3 ovarian', 'true'),
  ('CC(C)c1[nH]nc2c(NCc3ccc(-c4ccccn4)cc3)nc(SCCN(C)C)nc12', 'OVCAR-3 ovarian', 'false'),
  ('C[C@]12CC[C@H]3[C@@H](CC=C4C[C@@H](O)CC[C@@]43C)[C@@H]1CC[C@@H]2C(=O)C/C=N/O', 'OVCAR-3 ovarian', 'true'),
  ('CC(=O)[C@H]1CC[C@H]2[C@@H]3CC[C@@H]4CC=C(C=O)C[C@]4(C)[C@H]3CC[C@]12C', 'OVCAR-3 ovarian', 'true'),
  ('Cc1ccc2nc3[nH]c(=O)[nH]c(=O)c3c(N)c2c1', 'OVCAR-3 ovarian', 'true');

====

Test system: HOP-92 NSCLC
assay remarks: NCI-60 one-dose screen, 48 h (100 = growth as untreated, 0 = no growth, -100 = all killed)
assay setup: 10 µM
About 83,000 compounds went through this panel and 20% of them were active in at least one assay; those are over-represented in the sample as a whole. The source made the active and inactive calls. Rule for the calls: active = growth percent below 10; inactive = the rest.
parameter: growth

INSERT INTO measurements (molecule, result_value) VALUES
  ('CCOc1ccc(-n2cc(-c3ccc(N(C)C)cc3)[n+]3c2CCCCC3)cc1', '-8.52% (active)'),
  ('O=[N+]([O-])c1ccc(Br)o1', '102% (inactive)'),
  ('COc1cc(-c2n/c(=C\c3c(O)[nH]c4ccccc34)cc3c2=Nc2ccccc2-3)cc(OC)c1OC', '22.9% (inactive)'),
  ('COc1ccc2nc(NC(=O)Nc3c(F)cccc3F)sc2c1', '93.1% (inactive)'),
  ('Nc1ccccc1NC(=O)CCCCCCC(=O)Nc1ccc2c(c1)/C(=C/c1ccc[nH]1)C(=O)N2', '8.25% (active)'),
  ('Cc1ccc(-n2c(-c3cc4c([nH]c5ccccc54)c(-c4cccc(O)c4)n3)n[nH]c2=S)cc1', '34.3% (inactive)'),
  ('CCNC(=S)NN', '87.3% (inactive)'),
  ('O=C(O)CCCN1C(=O)NC2(C1=O)c1ccccc1-c1ccccc12', '88.5% (inactive)'),
  ('Cc1cc(O)c(C2=NN(c3ccc(S(N)(=O)=O)cc3)C(c3ccc(N(C)C)cc3)C2)c(C)c1Cl (stereo unspecified)', '45.5% (inactive)'),
  ('COc1ccc(S(=O)(=O)Nc2ccc(OCc3nnc(-c4ccc(Cl)cc4)o3)c(F)c2)cc1', '60.6% (inactive)'),
  ('Fc1ccc2[nH]c3c(NCCCN4CCOCC4)ncnc3c2c1', '63.9% (inactive)'),
  ('Cc1nn2c(/C=C3/C(=O)Nc4ccc(Cl)cc43)c(-c3ccccc3)nc2s1', '-5.92% (active)'),
  ('Cc1cc(C)c(/C=C2\C(=O)Nc3ccc(NC(=O)CCCCCCC(=O)NO)cc32)[nH]1', '-30.4% (active)'),
  ('c1ccc(CC(NCCNC(Cc2ccccc2)c2ccccc2)c2ccccc2)cc1 (stereo unspecified)', '-9.41% (active)'),
  ('O=C(COc1ccc(Cl)cc1Cl)Oc1coc(CSc2nc3ccccc3s2)cc1=O', '110% (inactive)'),
  ('CC(=O)/C(=C\c1ccc(Cl)cc1)c1ccccc1', '-0.736% (active)'),
  ('COc1ccc2oc(=O)cc(C(c3ccc[nH]3)c3ccc[nH]3)c2c1', '32.6% (inactive)'),
  ('Cc1c(C(=O)N[C@H](CO)Cc2ccccc2)[nH]c2ccc(Cl)cc2c1=O', '94.7% (inactive)'),
  ('O=NN(CC(=O)N/N=C/C=C\c1ccccc1)CC(=O)N/N=C/C=C/c1ccccc1', '60.6% (inactive)'),
  ('N=C(N)c1ccc(-c2ccc(-c3cccs3)s2)nc1', '-9.04% (active)'),
  ('Cc1cccc2c(Nc3ccc(NS(C)(=O)=O)cc3)c3ccc([N+](=O)[O-])cc3nc12', '-16.7% (active)');

Hello, the source for this data is PubChem BioAssay (NCI), in case you need it.
